subject-of-test: 5-HT2C receptor (Homo sapiens, UniProt P28335)
Sequence (P28335 33-458): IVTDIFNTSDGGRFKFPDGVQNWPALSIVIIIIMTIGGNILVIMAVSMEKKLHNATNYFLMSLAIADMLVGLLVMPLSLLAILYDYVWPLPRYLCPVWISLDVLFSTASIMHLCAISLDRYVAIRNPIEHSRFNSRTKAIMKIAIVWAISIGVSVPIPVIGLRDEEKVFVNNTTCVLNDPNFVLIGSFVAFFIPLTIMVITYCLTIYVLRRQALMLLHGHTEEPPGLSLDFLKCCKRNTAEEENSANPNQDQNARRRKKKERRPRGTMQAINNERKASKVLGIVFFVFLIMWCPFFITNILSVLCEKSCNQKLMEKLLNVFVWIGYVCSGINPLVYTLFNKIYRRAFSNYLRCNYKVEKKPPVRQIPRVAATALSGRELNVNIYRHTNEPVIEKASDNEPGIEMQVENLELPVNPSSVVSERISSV
assay: G alpha q-GTPγ[35S] binding agonist activity assay (ISPA), 5-HT2C
metric-name: pEC50
The scale used: pEC50 is minus the common logarithm of the concentration in molar units.

Field pEC50 (5-HT2C receptor (Homo sapiens, UniProt P28335)), entry FC(F)(F)CNc1c(Cl)ccc2c1CCNCC2.O=C(O)CCC(=O)O : 7.93

###

subject-of-test: human 5-HT2B receptor (Homo sapiens)
Sequence (P41595 whole entry): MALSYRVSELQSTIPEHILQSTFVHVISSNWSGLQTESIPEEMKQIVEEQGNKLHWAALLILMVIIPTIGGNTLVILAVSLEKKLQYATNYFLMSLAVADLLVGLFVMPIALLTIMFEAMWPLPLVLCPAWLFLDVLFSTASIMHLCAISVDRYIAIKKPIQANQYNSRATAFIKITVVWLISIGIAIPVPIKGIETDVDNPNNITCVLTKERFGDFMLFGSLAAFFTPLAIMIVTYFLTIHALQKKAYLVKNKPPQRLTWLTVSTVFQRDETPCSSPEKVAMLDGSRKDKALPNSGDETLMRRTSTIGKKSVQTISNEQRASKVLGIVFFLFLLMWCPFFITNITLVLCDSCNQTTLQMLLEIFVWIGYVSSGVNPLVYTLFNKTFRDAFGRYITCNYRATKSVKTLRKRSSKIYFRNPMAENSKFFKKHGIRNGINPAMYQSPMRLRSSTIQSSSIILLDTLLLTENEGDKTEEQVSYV
assay: G alpha q-GTPγ[35S] binding agonist activity assay (ISPA), 5-HT2B
test-parameters: AV12 cell membranes with human 5-HT2B; ± standard error of the mean
metric-name: EC50 (nM)
Numbers only here, please. The scale is nM.

The recorded EC50 for FC(F)(F)CNc1c(Cl)ccc2c1CCNCC2.O=C(O)CCC(=O)O is 119
